assay: Intrinsic permeability across human Caco-2 cells
Measured Quantity: Papp (×10⁻⁶ cm/s)

O=C(Nc1cccc(C(F)(F)F)c1)c1nscc1NCc1ccncc1 ... 6.98

(a) O=C(Nc1cccc(C(F)(F)F)c1)c1nscc1NCc1ccnc2ccccc12
(b) Cc1ccc(NC(=O)c2nscc2NCc2ccncc2)cc1C(F)(F)F
// query Would you mind telling me which has the lower recorded Papp between a and b ? // respond with label for picked entry
// result a
(a: 2.72 ×10⁻⁶ cm/s, b: 5.9 ×10⁻⁶ cm/s)

(a) CC(C)(C)c1cccc(NC(=O)c2nscc2NCc2ccncc2)c1
(b) O=C(Nc1cccc(Br)c1)c1nscc1NCc1ccnc2ccccc12
// query Would you mind telling me which has the lower recorded Papp between a and b ? // respond with label for picked entry
// result b

###

biological target: Vascular endothelial growth factor receptor 2 (Homo sapiens, UniProt P35968); experiment: Inhibition of VEGFR2 at IC50 concentration by ATP based competition assay
Sequence (P35968 whole entry): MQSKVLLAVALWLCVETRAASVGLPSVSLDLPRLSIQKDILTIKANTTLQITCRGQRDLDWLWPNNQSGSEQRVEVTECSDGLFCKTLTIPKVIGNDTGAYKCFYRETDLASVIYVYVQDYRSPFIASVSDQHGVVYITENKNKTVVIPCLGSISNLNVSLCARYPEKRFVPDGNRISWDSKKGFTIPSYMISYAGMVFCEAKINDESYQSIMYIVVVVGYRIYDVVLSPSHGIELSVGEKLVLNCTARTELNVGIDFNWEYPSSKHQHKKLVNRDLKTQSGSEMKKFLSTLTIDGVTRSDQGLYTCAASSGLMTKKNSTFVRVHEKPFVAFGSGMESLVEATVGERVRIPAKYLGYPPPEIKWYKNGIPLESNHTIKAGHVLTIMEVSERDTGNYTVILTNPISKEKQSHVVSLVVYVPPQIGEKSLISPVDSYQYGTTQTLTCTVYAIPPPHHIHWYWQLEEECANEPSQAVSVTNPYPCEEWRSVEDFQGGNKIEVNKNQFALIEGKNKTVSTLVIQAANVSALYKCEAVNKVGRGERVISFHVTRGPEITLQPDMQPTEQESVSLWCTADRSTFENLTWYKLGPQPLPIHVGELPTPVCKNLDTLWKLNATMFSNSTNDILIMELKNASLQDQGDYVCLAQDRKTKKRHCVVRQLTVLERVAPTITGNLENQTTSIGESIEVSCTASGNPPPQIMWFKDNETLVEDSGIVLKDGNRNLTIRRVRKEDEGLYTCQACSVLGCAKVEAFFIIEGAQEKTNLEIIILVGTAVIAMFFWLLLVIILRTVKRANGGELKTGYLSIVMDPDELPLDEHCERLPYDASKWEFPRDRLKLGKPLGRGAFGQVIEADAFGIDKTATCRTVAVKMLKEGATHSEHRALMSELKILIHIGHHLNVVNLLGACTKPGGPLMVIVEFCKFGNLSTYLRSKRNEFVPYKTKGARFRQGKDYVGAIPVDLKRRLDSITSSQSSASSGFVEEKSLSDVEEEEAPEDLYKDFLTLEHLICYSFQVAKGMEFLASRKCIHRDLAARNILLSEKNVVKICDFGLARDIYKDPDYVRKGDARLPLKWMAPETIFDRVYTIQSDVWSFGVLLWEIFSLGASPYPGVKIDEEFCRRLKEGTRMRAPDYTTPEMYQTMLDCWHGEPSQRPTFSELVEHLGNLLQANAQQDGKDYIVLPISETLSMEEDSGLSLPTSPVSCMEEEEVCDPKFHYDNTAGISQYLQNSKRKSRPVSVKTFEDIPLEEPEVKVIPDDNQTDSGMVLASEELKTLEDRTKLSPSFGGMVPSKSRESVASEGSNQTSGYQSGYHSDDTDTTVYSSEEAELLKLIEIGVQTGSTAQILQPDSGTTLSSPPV
pKi: −log10 of the molar value.
Measured Quantity: pKi

(a) O=C(Nc1cccc(C(F)(F)F)c1)c1nscc1NCc1ccncc1
(b) O=C(Nc1ccc(Br)cc1)c1nscc1NCc1ccncc1
// query Could you kindly indicate whether a or b has the higher pKi value? // respond with label for picked entry
// result b
(b: 7.05, a: 6.80)

###

experiment: Inhibition of Bcr-Abl T315 mutant at 10 uM by HTRF assay
Measured Quantity: inhibition

O=C(Nc1cccc(C(F)(F)F)c1)c1nscc1NCc1ccnc2ccccc12 ... < 30%
O=C(Nc1ccc2[nH]ncc2c1)c1nscc1NCc1ccncc1 ... < 30%
Cc1ccc(NC(=O)c2nscc2NCc2ccncc2)cc1C(F)(F)F ... < 30%
O=C(Nc1cccc(C(F)(F)F)c1)c1nscc1NCc1ccc(F)c(F)c1 ... < 30%
O=C(Nc1cccc(Br)c1)c1nscc1NCc1ccc2ccccc2n1 ... < 30%

Form field inhibition, entry O=C(Nc1cccc(C(F)(F)F)c1)c1nscc1NCc1ccccn1 : < 30%

###

biological target: Vascular endothelial growth factor receptor 1 (Homo sapiens, UniProt P17948); assay: Inhibition of VEGFR1 assessed as blockade of pGAT-biotin phosphorylation in presence of 2 uM ATP by HTRF assay
pIC50: −log10 of the molar value.
Measured Quantity: pIC50

Cc1ccc(NC(=O)c2nscc2NCc2ccncc2)cc1C(F)(F)F ... 6.72

(1) O=C(Nc1cccc(OC(F)(F)F)c1)c1nscc1NCc1ccncc1
(2) O=C(Nc1cccc(Br)c1)c1nscc1NCc1ccncc1
(3) O=C(Nc1ccc(Cl)c(C(F)(F)F)c1)c1nscc1NCc1ccncc1
(4) O=C(Nc1ccc(C(F)(F)F)c(Cl)c1)c1nscc1NCc1ccncc1
// query Order by pIC50, ascending. When ranking, write the labels in the order the request describes.
// result 4, 3, 1, 2
(4: 5.74, 3: 6.01, 1: 6.59, 2: 7.26)

###

target: Hepatocyte growth factor receptor (Homo sapiens) (UniProt P08581); assay: Inhibition of cMET at 10 uM by HTRF assay
Sequence (P08581 whole entry): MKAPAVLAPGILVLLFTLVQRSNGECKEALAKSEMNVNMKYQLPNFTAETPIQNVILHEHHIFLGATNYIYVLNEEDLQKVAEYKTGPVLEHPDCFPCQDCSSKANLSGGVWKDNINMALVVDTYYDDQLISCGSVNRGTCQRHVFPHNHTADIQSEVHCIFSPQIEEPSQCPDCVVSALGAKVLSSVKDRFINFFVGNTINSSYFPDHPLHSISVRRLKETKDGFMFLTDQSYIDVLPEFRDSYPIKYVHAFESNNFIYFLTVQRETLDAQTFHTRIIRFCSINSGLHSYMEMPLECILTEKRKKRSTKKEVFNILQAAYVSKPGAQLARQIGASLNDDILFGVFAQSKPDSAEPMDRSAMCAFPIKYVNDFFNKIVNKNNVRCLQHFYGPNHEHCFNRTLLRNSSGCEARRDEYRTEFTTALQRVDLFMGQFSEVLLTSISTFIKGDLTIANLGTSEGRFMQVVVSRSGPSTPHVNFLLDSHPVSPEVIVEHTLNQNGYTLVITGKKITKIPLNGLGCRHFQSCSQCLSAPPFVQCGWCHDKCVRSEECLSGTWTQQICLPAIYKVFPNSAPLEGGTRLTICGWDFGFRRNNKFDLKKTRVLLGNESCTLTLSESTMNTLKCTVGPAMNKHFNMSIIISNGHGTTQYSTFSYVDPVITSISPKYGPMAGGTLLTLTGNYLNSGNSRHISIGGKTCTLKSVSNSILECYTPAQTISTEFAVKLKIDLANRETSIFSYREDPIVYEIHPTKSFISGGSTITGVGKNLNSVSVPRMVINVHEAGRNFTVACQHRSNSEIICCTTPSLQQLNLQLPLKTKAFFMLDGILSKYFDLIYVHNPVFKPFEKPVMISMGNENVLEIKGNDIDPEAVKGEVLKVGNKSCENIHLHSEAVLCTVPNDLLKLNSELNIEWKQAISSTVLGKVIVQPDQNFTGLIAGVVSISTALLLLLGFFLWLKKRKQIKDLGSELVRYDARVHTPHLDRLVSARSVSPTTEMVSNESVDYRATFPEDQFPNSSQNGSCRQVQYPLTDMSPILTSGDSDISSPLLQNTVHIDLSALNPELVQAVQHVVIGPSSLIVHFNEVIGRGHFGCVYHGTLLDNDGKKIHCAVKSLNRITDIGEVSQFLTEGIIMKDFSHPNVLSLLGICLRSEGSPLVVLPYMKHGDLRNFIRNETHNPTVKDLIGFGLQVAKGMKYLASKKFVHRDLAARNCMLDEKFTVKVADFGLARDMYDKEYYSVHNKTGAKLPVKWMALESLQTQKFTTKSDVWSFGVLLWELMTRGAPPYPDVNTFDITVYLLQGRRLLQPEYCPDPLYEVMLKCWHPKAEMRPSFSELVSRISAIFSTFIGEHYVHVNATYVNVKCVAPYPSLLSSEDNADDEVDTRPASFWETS
Measured Quantity: inhibition

The examples below pair each entry with its known result.
O=C(Nc1ccc(OC(F)(F)F)cc1)c1nscc1NCc1ccncc1 ... < 30%
O=C(Nc1cccc(OC(F)(F)F)c1)c1nscc1NCc1ccncc1 ... < 30%
O=C(Nc1ccc(Br)cc1)c1nscc1NCc1ccncc1 ... < 30%
O=C(Nc1cccc(Br)c1)c1nscc1NCc1ccc2ccccc2n1 ... < 30%
Cc1cc(NC(=O)c2nscc2NCc2ccncc2)ccc1C(F)(F)F ... < 30%

Form field inhibition, entry O=C(Nc1cccc(Br)c1)c1nscc1NCc1cnoc1 : < 30%

Form field inhibition, entry O=C(Nc1cccc(C(F)(F)F)c1)c1nscc1NCCc1ccc2c(c1)OCO2 : < 30%

Form field inhibition, entry O=C(Nc1cccc(C(F)(F)F)c1)c1nscc1NCc1ccccn1 : < 30%

###

target: Receptor tyrosine-protein kinase erbB-2 (Homo sapiens) (UniProt P04626); experiment: Inhibition of ErbB2 at 10 uM by HTRF assay
Sequence (P04626 whole entry): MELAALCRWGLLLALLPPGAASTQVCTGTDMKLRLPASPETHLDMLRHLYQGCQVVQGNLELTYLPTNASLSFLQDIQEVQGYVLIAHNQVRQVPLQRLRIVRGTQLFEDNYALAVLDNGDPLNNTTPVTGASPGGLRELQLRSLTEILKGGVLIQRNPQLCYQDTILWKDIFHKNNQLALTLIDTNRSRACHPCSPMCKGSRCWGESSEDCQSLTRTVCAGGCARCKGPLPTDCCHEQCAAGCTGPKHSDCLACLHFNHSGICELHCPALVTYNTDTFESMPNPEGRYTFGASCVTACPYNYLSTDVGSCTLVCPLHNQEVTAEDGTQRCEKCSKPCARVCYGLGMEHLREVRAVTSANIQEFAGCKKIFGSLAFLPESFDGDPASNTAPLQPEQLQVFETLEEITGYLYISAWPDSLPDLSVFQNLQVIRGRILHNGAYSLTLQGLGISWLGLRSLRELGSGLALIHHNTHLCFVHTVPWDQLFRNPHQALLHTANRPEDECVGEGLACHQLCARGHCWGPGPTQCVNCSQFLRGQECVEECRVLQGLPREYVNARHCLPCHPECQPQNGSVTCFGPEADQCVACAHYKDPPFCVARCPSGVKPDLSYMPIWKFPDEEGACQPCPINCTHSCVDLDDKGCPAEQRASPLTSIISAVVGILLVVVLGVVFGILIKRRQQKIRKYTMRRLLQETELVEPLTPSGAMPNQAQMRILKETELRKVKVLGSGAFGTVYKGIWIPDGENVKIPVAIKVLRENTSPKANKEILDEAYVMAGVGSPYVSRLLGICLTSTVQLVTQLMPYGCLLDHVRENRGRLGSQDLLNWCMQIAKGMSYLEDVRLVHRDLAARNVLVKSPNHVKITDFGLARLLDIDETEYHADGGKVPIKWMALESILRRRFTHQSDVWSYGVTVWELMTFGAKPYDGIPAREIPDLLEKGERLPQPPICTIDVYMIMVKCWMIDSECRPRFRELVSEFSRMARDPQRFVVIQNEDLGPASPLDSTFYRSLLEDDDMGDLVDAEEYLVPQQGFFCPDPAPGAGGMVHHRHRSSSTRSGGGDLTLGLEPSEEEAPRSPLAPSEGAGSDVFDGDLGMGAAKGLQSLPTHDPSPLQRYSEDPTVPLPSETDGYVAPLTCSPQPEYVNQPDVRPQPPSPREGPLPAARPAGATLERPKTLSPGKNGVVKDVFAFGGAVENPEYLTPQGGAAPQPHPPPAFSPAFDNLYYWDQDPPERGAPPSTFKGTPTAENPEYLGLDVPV
Measured Quantity: inhibition

The examples below pair each entry with its known result.
O=C(Nc1cccc(C(F)(F)F)c1)c1nscc1NCc1cccnc1 ... < 30%
O=C(Nc1ccc(Cl)c(Cl)c1)c1nscc1NCc1ccncc1 ... < 30%
O=C(Nc1ccc(C(F)(F)F)c(Cl)c1)c1nscc1NCc1ccncc1 ... < 30%
O=C(Nc1ccc(C(F)(F)F)cc1)c1nscc1NCc1ccccn1 ... < 30%
O=C(Nc1ccc(Br)cc1)c1nscc1NCc1ccncc1 ... < 30%

Now for a further compound.
Form field inhibition, entry O=C(Nc1cccc(C(F)(F)F)c1)c1nscc1NCCc1ccc2c(c1)OCO2 : < 30%

###

molecular target: Vascular endothelial growth factor receptor 2 (Homo sapiens, UniProt P35968); test: Inhibition of VEGFR2 at IC90 concentration by ATP based competition assay
pKi: −log10 of the molar value.
Measured Quantity: pKi

(I) O=C(Nc1ccc(Br)cc1)c1nscc1NCc1ccncc1
(II) O=C(Nc1cccc(C(F)(F)F)c1)c1nscc1NCc1ccncc1
// query Would you mind telling me which has the lower recorded pKi between I and II ? // respond with label for picked entry
// result II
(II: 6.89, I: 7.15)

###

target: Vascular endothelial growth factor receptor 2 (Homo sapiens); assay: Inhibition of VEGFR2 expressed in HEK293 cells assessed as inhibition of receptor phosphorylation by ELISA; format: cell-based
pIC50: −log10 of the molar value.
Measured Quantity: pIC50

(1) O=C(Nc1cccc(Br)c1)c1nscc1NCc1ccncc1
(2) O=C(Nc1ccc2ccccc2n1)c1nscc1NCc1ccncc1
(3) O=C(Nc1cccc(C(F)(F)F)c1)c1nscc1NCc1ccncc1
(4) O=C(Nc1ccc(C(F)(F)F)c(Cl)c1)c1nscc1NCc1ccncc1
// query Rank order required: pIC50, descending. When ranking, write the labels in the order the request describes.
// result 3, 1, 2, 4

###

target: Vascular endothelial growth factor receptor 2 (Homo sapiens, UniProt P35968); assay: Inhibition of VEGFR2 expressed in HEK293 cells assessed as inhibition of receptor phosphorylation by ELISA; type: cell-based
Measured Quantity: IC50 (µM)

The examples below pair each entry with its known result.
Cc1ccc(NC(=O)c2nscc2NCc2ccncc2)cc1C(F)(F)F ... 0.056
O=C(NCc1ccc2c(c1)OCO2)c1nscc1NCc1ccncc1 ... 0.79
O=C(Nc1ccc(Br)cc1)c1nscc1NCc1ccncc1 ... 1.04

(A) O=C(Nc1ccc(Cl)c(Cl)c1)c1nscc1NCc1ccncc1
(B) O=C(Nc1ccc(Cl)c(C(F)(F)F)c1)c1nscc1NCc1ccncc1
(C) O=C(Nc1cccc(OC(F)(F)F)c1)c1nscc1NCc1ccncc1
// query Order by IC50, ascending. When ranking, write the labels in the order the request describes.
// result C, B, A

###

Readings of inhibition for the listed compounds
biological target: Insulin-like growth factor 1 receptor (Homo sapiens) (UniProt P08069); assay: Inhibition of IGF1R at 10 uM by HTRF assay

Form field inhibition, entry O=C(Nc1ccc2[nH]ncc2c1)c1nscc1NCc1ccncc1 : < 30%

Form field inhibition, entry O=C(Nc1ccc(Cl)c(C(F)(F)F)c1)c1nscc1NCc1ccncc1 : < 30%

Form field inhibition, entry CC(C)(C)c1ccc(NC(=O)c2nscc2NCc2ccncc2)cc1 : < 30%

Form field inhibition, entry O=C(Nc1ccc(Cl)c(Cl)c1)c1nscc1NCc1ccncc1 : < 30%

Form field inhibition, entry O=C(Nc1cccc(C(F)(F)F)c1)c1nscc1NCc1cccnc1 : < 30%

Form field inhibition, entry O=C(Nc1ccc(C(F)(F)F)cc1)c1nscc1NCc1ccncc1 : < 30%

Form field inhibition, entry CC(C)(C)c1cccc(NC(=O)c2nscc2NCc2ccncc2)c1 : < 30%

Form field inhibition, entry O=C(Nc1cccc(Br)c1)c1nscc1NCc1ccncc1 : < 30%

Form field inhibition, entry O=C(Nc1cccc(Br)c1)c1nscc1NCc1cnoc1 : < 30%

Form field inhibition, entry O=C(NCc1ccc2c(c1)OCO2)c1nscc1NCc1ccncc1 : < 30%

Form field inhibition, entry O=C(Nc1ccc(OC(F)(F)F)cc1)c1nscc1NCc1ccncc1 : < 30%

Form field inhibition, entry Cc1ccc(NC(=O)c2nscc2NCc2ccncc2)cc1C(F)(F)F : < 30%

Form field inhibition, entry O=C(Nc1cccc(C(F)(F)F)c1)c1nscc1NCc1ccc(F)c(F)c1 : < 30%

Form field inhibition, entry O=C(Nc1ccccc1Br)c1nscc1NCc1ccncc1 : < 30%

Form field inhibition, entry O=C(Nc1cccc(C(F)(F)F)c1)c1nscc1NCc1ccncc1 : < 30%

Form field inhibition, entry O=C(Nc1cccc(Br)c1)c1nscc1NCc1ccnc2ccccc12 : < 30%

Form field inhibition, entry O=C(Nc1ccc(C(F)(F)F)cc1)c1nscc1NCc1ccccn1 : < 30%

Form field inhibition, entry O=C(Nc1cccc(OC(F)(F)F)c1)c1nscc1NCc1ccncc1 : < 30%

Form field inhibition, entry O=C(Nc1cccc(C(F)(F)F)c1)c1nscc1NCc1ccnc2ccccc12 : < 30%

Form field inhibition, entry O=C(Nc1ccc2ccccc2n1)c1nscc1NCc1ccncc1 : < 30%

Form field inhibition, entry O=C(Nc1cccc(Br)c1)c1nscc1NCCc1ccc2c(c1)OCO2 : < 30%

Data provenance: ChEMBL document CHEMBL1136839
